test system: Staphylococcus aureus; test: Antibacterial activity against methicillin-resistant Staphylococcus aureus clinical isolate MRSA-22 measured after 16 to 18 hrs by CLSI method; format: functional; conditions: time 16-18 hrs
So I've got a bunch of compounds here, and I need their MIC values.

Below, each entry is followed by its recorded MIC result.
COc1cc(OCCCCN(CC(C)C)CC(C)C)c(CC=C(C)C)c2c1C(=O)CC(c1ccc(OCCCCN(CC(C)C)CC(C)C)cc1)O2 (stereo unspecified); > 128 µg/mL
COc1cc(OCCCCN2CCCCC2)c(CC=C(C)C)c2c1C(=O)CC(c1ccc(OCCCCN3CCCCC3)cc1)O2 (stereo unspecified); 16 µg/mL
COc1cc(OCCCCCN(CC(C)C)CC(C)C)c(CC=C(C)C)c2c1C(=O)CC(c1ccc(OCCCCCN(CC(C)C)CC(C)C)cc1)O2 (stereo unspecified); > 128 µg/mL

Give measured MIC for every item shown.
1. COc1cc(OCCCCN2CCOCC2)c(CC=C(C)C)c2c1C(=O)CC(c1ccc(OCCCCN3CCOCC3)cc1)O2 (stereo unspecified)
2. CCCCN(CCCC)CCCCOc1ccc(C2CC(=O)c3c(OC)cc(OCCCCN(CCCC)CCCC)c(CC=C(C)C)c3O2)cc1 (stereo unspecified)
3. CCCC[N+](C)(CCCC)CCCCCOc1ccc(C2CC(=O)c3c(OC)cc(OCCCCC[N+](C)(CCCC)CCCC)c(CC=C(C)C)c3O2)cc1.[I-].[I-] (stereo unspecified)

Data returned:
32 µg/mL
8 µg/mL
1 µg/mL
